meta.source: patent US20240209076A1

- TARGET DESC: T1, human IL-6 (human, UniProt P05231 30-212)
- T1 construct: IL-6 flowed over captured antibodies
- T1 sequence (P05231 30-212 limits assumed): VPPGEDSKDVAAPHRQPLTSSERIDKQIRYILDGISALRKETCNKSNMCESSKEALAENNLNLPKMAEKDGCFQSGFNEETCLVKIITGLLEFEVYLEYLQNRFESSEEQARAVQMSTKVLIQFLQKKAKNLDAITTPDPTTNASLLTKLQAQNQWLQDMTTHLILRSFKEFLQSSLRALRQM
- PROCEDURE SUMMARY: SPR Biacore, supernatant Ab on Protein A chip, 37 C
- Description: Antibodies were captured on a Protein A chip (GE) by injecting 1:20 cell supernatant dilutions at 10 μL/min for 60 seconds. […] The sensor chip was regenerated by a 60 seconds injection of 10 mM Glycine pH 1.7 at the flow rate of 50 μL/min. […] For this setup, 1 μg/mL of purified antibody was injected over a Protein A chip at 10 μL/min for 25 seconds. […] The sensor chip was regenerated by a 60 seconds injection of 10 mM Glycine pH 1.7 at flow rate of 50 μL/min. […]
EXPERIMENTAL ENDPOINT: kon (M⁻¹ s⁻¹)

>  <BINDER>
anti-IL-6 antibody, heavy chain T65V, G66D / light chain M32L, M50D, N52S, M88Q (antibody, IgG1, V domains shown, Full IgG1 (Expi293); VL = variant III) VH: EVQLVESGGGLVQPGGSLRLSCAASGFTFSPFAMSWVRQAPGKGLEWVAKISPGGSWTYYSDTVVDRFTFSLDTSKSTAYLQMNSLRAEDTAVYYCARQLWGYYALDIWGQGTLVTVSS VL: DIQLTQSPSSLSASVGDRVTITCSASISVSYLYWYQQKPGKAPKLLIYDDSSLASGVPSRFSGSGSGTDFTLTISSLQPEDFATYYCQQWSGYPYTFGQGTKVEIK

>  <EXPERIMENTAL ENDPOINT>
kon

>  <TEST RESULT>
1.96e+06

$$$$
>  <BINDER>
anti-IL-6 antibody, heavy chain T63I, G66D / light chain M32L, M50D, N52S, M88Q (antibody, IgG1, V domains shown, Full IgG1 (Expi293); VL = variant III) VH: EVQLVESGGGLVQPGGSLRLSCAASGFTFSPFAMSWVRQAPGKGLEWVAKISPGGSWTYYSDIVTDRFTFSLDTSKSTAYLQMNSLRAEDTAVYYCARQLWGYYALDIWGQGTLVTVSS VL: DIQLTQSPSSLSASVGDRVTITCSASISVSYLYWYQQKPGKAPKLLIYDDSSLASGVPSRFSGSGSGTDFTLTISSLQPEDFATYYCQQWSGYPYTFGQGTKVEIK

>  <EXPERIMENTAL ENDPOINT>
kon

>  <TEST RESULT>
1.55e+06

$$$$
>  <BINDER>
anti-IL-6 antibody, heavy chain T65H, G66D / light chain M32L, M50D, N52S, M88Q (antibody, IgG1, V domains shown, Full IgG1 (Expi293); VL = variant III) VH: EVQLVESGGGLVQPGGSLRLSCAASGFTFSPFAMSWVRQAPGKGLEWVAKISPGGSWTYYSDTVHDRFTFSLDTSKSTAYLQMNSLRAEDTAVYYCARQLWGYYALDIWGQGTLVTVSS VL: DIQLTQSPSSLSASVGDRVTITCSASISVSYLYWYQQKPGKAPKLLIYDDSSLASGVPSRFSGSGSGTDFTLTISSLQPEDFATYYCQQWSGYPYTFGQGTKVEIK

>  <EXPERIMENTAL ENDPOINT>
kon

>  <TEST RESULT>
1.43e+06

$$$$
